- System under test: Smoothened (SMO) (Mus musculus)
- Construct: C3H10T1/2 cells (ATCC #CCL-226) were split and seeded; endogenous in cells; host or cells: C3H10T1/2 (ATCC #CCL-226)
- Sequence (P56726 33-793): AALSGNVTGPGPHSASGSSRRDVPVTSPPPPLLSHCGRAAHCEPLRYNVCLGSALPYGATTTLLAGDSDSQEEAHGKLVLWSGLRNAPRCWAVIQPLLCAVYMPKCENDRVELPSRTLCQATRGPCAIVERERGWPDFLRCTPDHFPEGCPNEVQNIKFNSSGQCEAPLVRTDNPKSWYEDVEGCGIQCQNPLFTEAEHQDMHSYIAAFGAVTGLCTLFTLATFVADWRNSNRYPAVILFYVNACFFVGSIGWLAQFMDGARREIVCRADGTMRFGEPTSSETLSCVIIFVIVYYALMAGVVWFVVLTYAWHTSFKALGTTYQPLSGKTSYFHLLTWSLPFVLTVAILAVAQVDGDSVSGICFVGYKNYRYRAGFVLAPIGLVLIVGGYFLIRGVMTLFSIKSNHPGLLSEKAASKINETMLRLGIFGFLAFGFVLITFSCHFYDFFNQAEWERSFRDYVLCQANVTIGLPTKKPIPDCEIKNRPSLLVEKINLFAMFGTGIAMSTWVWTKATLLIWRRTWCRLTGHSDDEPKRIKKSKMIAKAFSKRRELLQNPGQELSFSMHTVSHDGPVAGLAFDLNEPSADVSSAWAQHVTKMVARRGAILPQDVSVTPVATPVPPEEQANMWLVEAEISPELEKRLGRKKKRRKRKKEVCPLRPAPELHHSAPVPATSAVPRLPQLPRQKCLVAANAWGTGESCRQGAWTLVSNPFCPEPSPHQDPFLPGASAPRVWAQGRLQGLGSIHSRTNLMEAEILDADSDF
- Protocol: Smoothened (SMO)/Sonic Hedgehog (SHh) Transient Transcriptional Activation Assay (Gli-luciferase reporter in C3H10T1/2 cells)
- Type: cell-based, murine
- Run parameters: C3H 10T1/2, 2 μM compound; transfected C3H10T1/2 cells, recombinant human SHh 250 ng/mL, 20 hours, luciferase readout; read-out: SMO CELL % INHIBITION @ 2 μM
Structures can show the parent of a compound that is named as a salt.
Consider the following molecules; for each one, report its inhibition at 2 µM.
Reply with just the number (in %).

Specify inhibition at 2 µM for COc1ccc2[nH]c([C@H]3C[C@H](NC(=O)c4cc5c(cc4Cl)OCCO5)CCN3C)nc2c1 , system Smoothened (SMO) (Mus musculus). 35.3

Specify inhibition at 2 µM for CN1C[C@H](NC(=O)Nc2ccc(Cl)c(C(F)(F)F)c2)C[C@H]1c1nc2ccc(F)cc2[nH]1 , system Smoothened (SMO) (Mus musculus). 81.8

Specify inhibition at 2 µM for CN1CC[C@@H](NC(=O)c2ccc(C#N)cc2)C[C@@H]1c1nc2ccccc2[nH]1 [Example 121, trifluoroacetate] , system Smoothened (SMO) (Mus musculus). 62.3

Specify inhibition at 2 µM for COc1ccc2[nH]c([C@H]3C[C@H](NC(=O)Nc4ccc(C(F)(F)F)nc4)CCN3C)nc2c1 [Example 62, hydrochloride] , system Smoothened (SMO) (Mus musculus). 104

Specify inhibition at 2 µM for N#Cc1ccc(NC(=O)N[C@@H]2CCN(CCc3ccccc3)[C@@H](c3nc4ccccc4[nH]3)C2)cc1 , system Smoothened (SMO) (Mus musculus). 74.5

Specify inhibition at 2 µM for COc1ccc2[nH]c([C@H]3C[C@H](NC(=O)c4ccc5c(c4Cl)OCCO5)CCN3C)nc2c1 , system Smoothened (SMO) (Mus musculus). 107

Specify inhibition at 2 µM for CCN1CC[C@@H](NC(=O)Nc2ccc(C#N)cc2)C[C@@H]1c1nc2ccccc2[nH]1 , system Smoothened (SMO) (Mus musculus). 105
